The origin of these recorded values is paper PMC8605023.

molecular target: Ezrin FERM domain (human, UniProt P15311 2-296); settings: both partners purified
Sequence (P15311 2-296): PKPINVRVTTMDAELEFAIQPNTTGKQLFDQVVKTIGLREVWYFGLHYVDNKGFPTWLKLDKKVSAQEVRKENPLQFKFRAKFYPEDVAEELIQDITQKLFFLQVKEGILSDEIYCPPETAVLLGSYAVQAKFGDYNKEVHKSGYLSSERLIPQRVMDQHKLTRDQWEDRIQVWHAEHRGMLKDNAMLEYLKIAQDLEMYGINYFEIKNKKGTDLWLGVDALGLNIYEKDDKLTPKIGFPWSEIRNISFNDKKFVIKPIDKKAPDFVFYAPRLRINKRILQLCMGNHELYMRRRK
endpoint label: IC50 (µM)
Hi! Could you send only the number? It should be in µM, unit omitted.

Enquiry: I have this binder here, VETSNSFDVLKSEDAQY [NSP3 peptide 2019-2034 (Sars-CoV2)] , and I need its recorded IC50.
Return: 1530
